// values below are reported pIC50
Target: human CDK9/CyclinT kinase complex (Homo sapiens (Human))
Sequence (P50750 whole entry): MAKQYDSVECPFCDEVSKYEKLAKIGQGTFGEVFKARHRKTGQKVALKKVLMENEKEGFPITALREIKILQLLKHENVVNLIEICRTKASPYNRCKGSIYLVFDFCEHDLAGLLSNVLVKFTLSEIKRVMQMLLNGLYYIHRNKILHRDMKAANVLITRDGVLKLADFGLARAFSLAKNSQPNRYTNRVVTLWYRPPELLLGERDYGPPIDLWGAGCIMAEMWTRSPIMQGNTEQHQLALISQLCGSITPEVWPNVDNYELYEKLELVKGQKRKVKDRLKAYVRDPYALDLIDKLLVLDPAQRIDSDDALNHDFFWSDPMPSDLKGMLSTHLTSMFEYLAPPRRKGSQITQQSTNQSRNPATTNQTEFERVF
Sequence (O60563 whole entry partner): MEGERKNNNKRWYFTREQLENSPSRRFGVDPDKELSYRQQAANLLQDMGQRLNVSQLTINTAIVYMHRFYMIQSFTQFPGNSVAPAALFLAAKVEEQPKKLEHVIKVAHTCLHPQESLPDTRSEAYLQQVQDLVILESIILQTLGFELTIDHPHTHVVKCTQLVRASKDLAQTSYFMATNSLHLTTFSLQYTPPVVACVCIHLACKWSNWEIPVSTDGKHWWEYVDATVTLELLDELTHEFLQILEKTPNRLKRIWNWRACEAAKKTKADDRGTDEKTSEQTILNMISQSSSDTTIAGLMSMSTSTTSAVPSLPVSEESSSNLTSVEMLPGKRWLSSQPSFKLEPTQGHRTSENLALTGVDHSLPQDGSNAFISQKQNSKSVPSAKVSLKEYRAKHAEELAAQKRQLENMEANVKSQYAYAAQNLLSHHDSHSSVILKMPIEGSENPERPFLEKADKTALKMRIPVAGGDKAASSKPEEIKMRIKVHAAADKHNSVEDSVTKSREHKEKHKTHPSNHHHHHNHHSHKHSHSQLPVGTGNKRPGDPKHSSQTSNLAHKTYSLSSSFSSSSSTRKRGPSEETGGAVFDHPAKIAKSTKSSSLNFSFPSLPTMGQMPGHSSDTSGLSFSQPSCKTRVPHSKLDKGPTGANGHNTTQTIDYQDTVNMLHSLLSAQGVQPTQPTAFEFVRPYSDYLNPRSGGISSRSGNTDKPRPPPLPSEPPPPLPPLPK
Test: In Vitro CDK9/CyclinT Assay (IMAP fluorescent polarization)
Format: biochemical
Conditions: Table 1
pIC50: −log10 of the molar value.
ASSAY READOUT: pIC50

> print(dat)
                                    compound                               test.system  observed.value
 1  COc1ccc(F)cc1-c1cc(Nc2cc(F)c(OC)c(C(N)=O)c2)ncn1 [Example 140]  human CDK9/CyclinT kinase complex (Homo sapiens (Human))          > 5.00
 2  COc1cccc(-c2cc(Nc3ccc(OC)c(N)c3)ncn2)c1 [Example 68]  human CDK9/CyclinT kinase complex (Homo sapiens (Human))          < 5.00
 3  COc1ccc(Nc2cc(-c3ccccc3OC)ncn2)cc1NC(N)=O [Example 56]  human CDK9/CyclinT kinase complex (Homo sapiens (Human))          > 6.00
 4  COc1cc(F)c(Nc2cc(-c3ccc(F)cc3OC)ncn2)cc1C(N)=O [Example 146]  human CDK9/CyclinT kinase complex (Homo sapiens (Human))          > 6.00
 5  COc1ccc(Nc2cc(-c3ccc(F)cc3OC)ncn2)cc1O [Example 123]  human CDK9/CyclinT kinase complex (Homo sapiens (Human))          > 6.00
 6  COc1ccc(Nc2cc(-c3cc(F)c(F)cc3OC)ncn2)cc1N [Example 83]  human CDK9/CyclinT kinase complex (Homo sapiens (Human))          > 6.00
 7  COc1ccc(Nc2cc(-c3ccccc3Oc3ccccc3)ncn2)cc1[N+](=O)[O-] [Example 76]  human CDK9/CyclinT kinase complex (Homo sapiens (Human))          < 5.00
 8  COc1ccc(Nc2cc(-c3ccccc3OC)ncn2)cc1C(=O)NCCO [Example 48]  human CDK9/CyclinT kinase complex (Homo sapiens (Human))          > 6.00
 9  COc1ccc(Nc2cc(-c3cc(F)ccc3OC)ncn2)cc1O [Example 122]  human CDK9/CyclinT kinase complex (Homo sapiens (Human))          > 6.00
10  COc1ccc(Nc2cc(-c3ccccc3OC)ncn2)cc1CO [Example 24]  human CDK9/CyclinT kinase complex (Homo sapiens (Human))          > 6.00
11  COc1ccc(Nc2cc(-c3ccc(F)cc3OC)ncn2)cc1N [Example 64]  human CDK9/CyclinT kinase complex (Homo sapiens (Human))          > 6.00
12  COC(=O)Oc1cc(Nc2cc(-c3ccccc3OC)ncn2)ccc1OC [Example 95]  human CDK9/CyclinT kinase complex (Homo sapiens (Human))          > 6.00
13  COc1ccc(Nc2cc(-c3ccccc3OC)ncn2)cc1C(=O)O [Example 49]  human CDK9/CyclinT kinase complex (Homo sapiens (Human))          > 6.00
14  COc1ccc(Nc2cc(-c3ccccc3OC)ncn2)cc1NC(=O)C(C)(C)C [Example 53]  human CDK9/CyclinT kinase complex (Homo sapiens (Human))          > 6.00
15  COC(=O)Oc1cc(Nc2cc(-c3ccc(F)cc3OC)ncn2)ccc1OC [Example 125]  human CDK9/CyclinT kinase complex (Homo sapiens (Human))          > 6.00
16  COc1ccc(Nc2cc(-c3ccccc3Oc3ccccc3)ncn2)cc1N [Example 77]  human CDK9/CyclinT kinase complex (Homo sapiens (Human))          > 5.00
17  CCOc1ccc(Nc2cc(-c3ccccc3OC)ncn2)cc1Cn1cnc2ccccc21 [Example 39]  human CDK9/CyclinT kinase complex (Homo sapiens (Human))          > 7.00
18  COc1ccc(Nc2cc(-c3ccc(F)cc3OC(C)C)ncn2)cc1N [Example 86]  human CDK9/CyclinT kinase complex (Homo sapiens (Human))          > 6.00
19  COC(=O)Nc1cc(Nc2cc(-c3ccccc3OC)ncn2)ccc1OC [Example 51]  human CDK9/CyclinT kinase complex (Homo sapiens (Human))          > 6.00
